Origin of measurements: patent US11254686B1

Biological target: adenosine A2B receptor (Homo sapiens (Human), UniProt P29275)
Sequence (P29275 whole entry): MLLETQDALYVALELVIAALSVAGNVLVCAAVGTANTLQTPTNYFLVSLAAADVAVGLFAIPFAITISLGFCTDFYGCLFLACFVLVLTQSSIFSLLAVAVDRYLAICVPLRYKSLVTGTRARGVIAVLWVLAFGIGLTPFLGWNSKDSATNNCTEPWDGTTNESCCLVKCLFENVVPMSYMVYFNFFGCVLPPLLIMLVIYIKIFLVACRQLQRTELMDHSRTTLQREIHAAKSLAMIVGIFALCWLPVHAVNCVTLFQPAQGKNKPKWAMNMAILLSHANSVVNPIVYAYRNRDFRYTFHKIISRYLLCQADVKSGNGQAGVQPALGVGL
Assay: Adenosine receptor activity assay (Table 1), A2B activity
Format: biochemical
Settings: A2A activity to the A2B activity; A2A/A2B
Our labelling divides records by Ratio into ranges: lowest: < 2; middle: ≥ 2 and < 10; highest: ≥ 10

Q. # classify by Ratio band: CCO[C@H]1CCN(C(=O)c2nc(N[C@@H](C)c3ccccn3)nc3ccsc23)C1 [Example Z442]
A. middle

Q. # classify by Ratio band: Cc1csc2c(C(=O)NC3CCC3)nc(N[C@@H](C)c3ccccn3)nc12 [Example Z456]
A. middle

Q. # classify by Ratio band: Cc1cc2nc(N[C@@H](C)c3cncc(F)c3)nc(C(=O)N3CC(CN)C3)c2s1 [Example Z478]
A. highest

Q. # classify by Ratio band: C[C@H](Nc1nc(C(=O)N2CC(NC(=O)C3(C)CCOC3)C2)c2sccc2n1)c1cncc(F)c1 (stereo partly drawn) [Example Z608]
A. lowest

Q. # classify by Ratio band: Cc1cc2nc(N[C@@H](C)c3ccccn3)nc(C(=O)NCc3ccccn3)c2s1 [Example Z461]
A. middle

Q. # classify by Ratio band: Cc1cc2nc(N[C@@H](C)c3cncc(F)c3)nc(C(=O)N3CC[C@@H]3C)c2s1 [Example Z596]
A. highest

Q. # classify by Ratio band: Cc1cc2nc(N[C@@H](C)c3cncc(F)c3)nc(C(=O)N3CCN(C(=O)NC(C)C)C3)c2s1 [Example Z593]
A. middle

Q. # classify by Ratio band: COc1ccc(CNc2nc(C(=O)NC3CCC3)c3sccc3n2)cn1 [Example Z434]
A. lowest

Q. # classify by Ratio band: Cc1cc2nc(N[C@@H](C)c3cccnc3)nc(C(=O)N[C@H]3C[C@@H](O)C3)c2s1 [Example Z503]
A. highest

Q. # classify by Ratio band: COC[C@@H]1CCN1C(=O)c1nc(N[C@@H](C)c2cncc(F)c2)nc2ccsc12 [Example Z567]
A. middle

Q. # classify by Ratio band: C[C@H](Nc1nc(C(=O)N2CC(NC(=O)C34CC(C3)C4)C2)c2sccc2n1)c1cncc(F)c1 [Example Z604]
A. lowest

Q. # classify by Ratio band: C[C@H](Nc1nc(C(=O)N2CCN(C(=O)OC(C)(C)C)C2)c2sccc2n1)c1cncc(F)c1 [Example Z584]
A. middle

Q. # classify by Ratio band: Cc1csc2c(C(=O)NCc3cccnc3)nc(N[C@@H](C)c3ccccn3)nc12 [Example Z458]
A. lowest

Q. # classify by Ratio band: C[C@H](Nc1nc(C(=O)N2CC(NC(=O)C(C)(C)C)C2)c2sccc2n1)c1cncc(Cl)c1 [Example Z642]
A. lowest

Q. # classify by Ratio band: COC[C@H]1CCN(C(=O)c2nc(N[C@@H](C)c3ccccn3)nc3cc(C)sc23)C1 [Example Z468]
A. highest

Q. # classify by Ratio band: Cc1cc2nc(N[C@@H](C)c3cccnc3)nc(C(=O)N3CC(CN)C3)c2s1 [Example Z499]
A. highest

Q. # classify by Ratio band: COc1ccc(CNC(=O)c2nc(N[C@@H](C)c3ccccn3)nc3cc(C)sc23)cn1 [Example Z469]
A. highest

Q. # classify by Ratio band: Cc1cc2nc(N[C@@H](C)c3cncc(F)c3)nc(C(=O)N3CC(N)C3)c2s1 [Example Z430]
A. highest

Q. # classify by Ratio band: C[C@H](Nc1nc(C(=O)NCCC2CNC2)c2sccc2n1)c1ccccn1 [Example Z432]
A. highest

Q. # classify by Ratio band: COC[C@@H]1CCN1C(=O)c1nc(N[C@@H](C)c2cncc(F)c2)nc2cc(C)sc12 [Example Z569]
A. highest

Q. # classify by Ratio band: C[C@H](Nc1nc(C(=O)NCC2CCN(CCc3ccccc3)CC2)c2sccc2n1)c1ccccn1 [Example Z446]
A. lowest

Q. # classify by Ratio band: COC[C@@H]1CCN(C(=O)c2nc(N[C@@H](C)c3ccccn3)nc3cc(C)sc23)C1 [Example Z467]
A. middle

Q. # classify by Ratio band: C[C@H](Nc1nc(C(=O)N2CC(NC(=O)NC3CCC3)C2)c2sccc2n1)c1cncc(F)c1 [Example Z623]
A. lowest

Q. # classify by Ratio band: C[C@H](Nc1nc(C(=O)NCCc2ccc(N)cc2)c2sccc2n1)c1cncc(F)c1 [Example Z493]
A. highest

Q. # classify by Ratio band: C[C@H](Nc1nc(C(=O)N2CC(CN(C)C(=O)OC(C)(C)C)C2)c2sccc2n1)c1cncc(F)c1 [Example Z525]
A. middle

Q. # classify by Ratio band: Cc1cc2nc(N[C@@H](C)c3cncc(F)c3)nc(C(=O)N3CC(NC(=O)C4CC4)C3)c2s1 [Example Z522]
A. lowest

Q. # classify by Ratio band: C[C@H](Nc1nc(C(=O)N2CCN(C(=O)C(C)(C)C)C2)c2sccc2n1)c1cncc(F)c1 [Example Z565]
A. middle

====

Target: adenosine A2A receptor (Homo sapiens (Human))
Sequence (P29274 whole entry): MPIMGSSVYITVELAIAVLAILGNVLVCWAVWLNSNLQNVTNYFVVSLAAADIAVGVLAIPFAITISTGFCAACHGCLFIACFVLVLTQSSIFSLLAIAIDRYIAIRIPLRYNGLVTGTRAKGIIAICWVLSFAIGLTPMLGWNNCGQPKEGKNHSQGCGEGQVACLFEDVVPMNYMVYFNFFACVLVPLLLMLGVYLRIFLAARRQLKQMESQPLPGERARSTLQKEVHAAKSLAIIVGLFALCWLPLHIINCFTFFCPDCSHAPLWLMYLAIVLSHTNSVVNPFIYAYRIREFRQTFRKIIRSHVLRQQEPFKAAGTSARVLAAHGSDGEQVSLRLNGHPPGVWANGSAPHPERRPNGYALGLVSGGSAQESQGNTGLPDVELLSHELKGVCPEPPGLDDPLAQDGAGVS
Test: Adenosine receptor activity assay (Table 1), A2A activity
Assay type: biochemical
Details: read-out: Ave A2A cAMP IC50
Provide the recorded IC50 for the entries that follow.

Q. // fetch IC50 given entry Cc1cc2nc(N[C@@H](C)c3cncc(F)c3)nc(C(=O)N3CC[C@H](O)C3)c2s1 [Example Z249]
A. 100 to 500 nM

Q. // fetch IC50 given entry COc1ncccc1CNC(=O)c1nc(N[C@@H](C)c2ccccn2)nc2ccsc12 [Example Z449]
A. > 500 nM

Q. // fetch IC50 given entry C[C@H](Nc1nc(C(=O)N2CCOC2)c2sccc2n1)c1ccccn1 [Example Z105]
A. 100 to 500 nM

Q. // fetch IC50 given entry C[C@H](Nc1nc(C(=O)NCCc2ccc(N)cc2)c2sccc2n1)c1cncc(F)c1 [Example Z493]
A. > 500 nM

Q. // fetch IC50 given entry C[C@H](Nc1nc(C(=O)N[C@H]2C[C@@H](O)C2)c2sccc2n1)c1ccccn1 [Example Z158]
A. 10 to 50 nM

====

Target: adenosine A3 receptor (Homo sapiens (Human), UniProt P0DMS8)
Sequence (P0DMS8 whole entry): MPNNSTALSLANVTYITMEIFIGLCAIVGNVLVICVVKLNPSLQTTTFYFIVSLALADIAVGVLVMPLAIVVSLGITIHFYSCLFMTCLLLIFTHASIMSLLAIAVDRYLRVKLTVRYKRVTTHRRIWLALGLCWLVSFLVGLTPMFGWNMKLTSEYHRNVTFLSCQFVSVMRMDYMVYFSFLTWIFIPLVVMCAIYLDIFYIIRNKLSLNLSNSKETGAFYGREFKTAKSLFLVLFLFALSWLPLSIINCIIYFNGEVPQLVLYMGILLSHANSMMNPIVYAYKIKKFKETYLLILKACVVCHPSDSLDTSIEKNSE
Test: Adenosine receptor activity assay (Table 1), A3 cAMP
Assay type: biochemical
pIC50: −log10 of the molar value.
measured metric: pIC50

Q. // fetch pIC50 given entry C[C@H](Nc1nc(C(=O)NCCc2cccc(O)c2)c2sccc2n1)c1cccnc1
A. 6.30 to 7.00

Q. // fetch pIC50 given entry Cc1cc2nc(N[C@@H](C)c3cncc(F)c3)nc(C(=O)N3CC[C@H](NC(=O)OCc4ccccc4)C3)c2s1
A. < 6.30

Q. // fetch pIC50 given entry Cc1cc2nc(N[C@@H](C)c3cncc(F)c3)nc(C(=O)N3CC(NC(=O)C(C)(C)C)C3)c2s1
A. 7.30 to 8.00

Q. // fetch pIC50 given entry C[C@H](Nc1nc(C(=O)N2CC(CNC(=O)N(C)C)C2)c2sccc2n1)c1cncc(F)c1
A. < 6.30

Q. // fetch pIC50 given entry Cc1cc2nc(N[C@@H](C)c3cncc(F)c3)nc(C(=O)N3CC(CNC(=O)C(C)(C)C)C3)c2s1
A. < 6.30

Q. // fetch pIC50 given entry Cc1cc2nc(N[C@@H](C)c3ccccn3)nc(C(N)=O)c2s1
A. < 6.30

Q. // fetch pIC50 given entry Cc1csc2c(C(=O)NCc3ccccn3)nc(N[C@@H](C)c3ccccn3)nc12
A. 7.30 to 8.00

Q. // fetch pIC50 given entry Cc1cc2nc(N[C@@H](C)c3cncc(F)c3)nc(C(=O)N3CC(NC(=O)CNC(=O)c4ccccc4)C3)c2s1
A. < 6.30

Q. // fetch pIC50 given entry Cc1cc2nc(N[C@@H](C)c3cncc(F)c3)nc(C(=O)NCCC3CCN(C)CC3)c2s1
A. < 6.30

Q. // fetch pIC50 given entry Cc1cc2nc(N[C@@H](C)c3cncc(F)c3)nc(C(=O)N3CC[C@@H](NC(=O)OCc4ccccc4)C3)c2s1
A. < 6.30

Q. // fetch pIC50 given entry COc1ccc([C@@H](C)Nc2nc(C(=O)NCc3ccc(OC)nc3)c3sccc3n2)cc1
A. < 6.30

Q. // fetch pIC50 given entry COC[C@H]1CCN(C(=O)c2nc(N[C@@H](C)c3ccccn3)nc3cc(C)sc23)C1
A. < 6.30

Q. // fetch pIC50 given entry CCNC(=O)C1CCN(C(=O)c2nc(N[C@@H](C)c3cncc(F)c3)nc3ccsc23)C1 (stereo partly drawn)
A. < 6.30

Q. // fetch pIC50 given entry CC1CCN1C(=O)c1nc(N[C@@H](C)c2cncc(F)c2)nc2ccsc12 (stereo partly drawn)
A. < 6.30

Q. // fetch pIC50 given entry C[C@H](Nc1nc(C(=O)N2CC(CNC(=O)OCC(C)(C)C)C2)c2sccc2n1)c1cncc(F)c1
A. < 6.30

Q. // fetch pIC50 given entry Cc1cc2nc(N[C@@H](C)c3cncc(F)c3)nc(C(=O)N3CC(NC(=O)OC(C)(C)C)C3)c2s1
A. 7.30 to 8.00

Q. // fetch pIC50 given entry Cc1cc2nc(N[C@@H](C)c3cncc(F)c3)nc(C(=O)N3CC(NC(=O)C(C)C)C3)c2s1
A. 6.30 to 7.00

Q. // fetch pIC50 given entry Cc1cc2nc(N[C@@H](C)c3cncc(F)c3)nc(C(=O)N3CC(NC(=O)OCC(C)(C)C)C3)c2s1
A. 7.30 to 8.00

Q. // fetch pIC50 given entry Cc1csc2c(C(=O)NC3CCC3)nc(N[C@@H](C)c3ccccn3)nc12
A. 7.00 to 7.30

Q. // fetch pIC50 given entry CCNC(=O)c1ccc(CCNC(=O)c2nc(N[C@@H](C)c3cncc(F)c3)nc3cc(C)sc23)cc1
A. < 6.30

Q. // fetch pIC50 given entry Cc1cc2nc(N[C@@H](C)c3cncc(F)c3)nc(C(=O)N3CC[C@H](CN)C3)c2s1
A. < 6.30
